Molecular target: T1, human recombinant HLA-B*08:01 with b2m (human)
T1 construct: Peptide-receptive MHC class I used in the pMHC stability assay by ImmunAware; also called MHC heavy chain and b2m
Assay: pMHC stability assay at 37 C, mean half-life of b2m on heavy chain, grade (T1/2 >2 h = +; >4 h = ++; >6 h = +++; >10 h = ++++)
The following binders are shown together with reported mean half-life (T1/2) of peptide-MHC complex values.

Worked examples follow.
ELYQRIYAF (synthetic peptide; also called PIK3R6 peptide) [peptide ELYQRIYAF (SEQ ID NO: 115)] ... 4 to 6 h
HNALRILTF (synthetic peptide; also called NUP210 peptide) [peptide HNALRILTF (SEQ ID NO: 114)] ... 4 to 6 h
RPKKVNTL (synthetic peptide; also called ZBTB24 peptide) [peptide RPKKVNTL (SEQ ID NO: 121)] ... 2 to 4 h
TLKIRAEVL (synthetic peptide; also called RALGPS2 peptide) [peptide TLKIRAEVL (SEQ ID NO: 116)] ... 6 to 10 h
DANSRTSQL (synthetic peptide; also called MAP3K1 peptide) [peptide DANSRTSQL (SEQ ID NO: 113)] ... 6 to 10 h

Moving on to another binder below.
// VPPKKHLL (synthetic peptide; also called TRRAP peptide) [peptide VPPKKHLL (SEQ ID NO: 120)] : mean half-life (T1/2) of peptide-MHC complex value = 2 to 4 h
